Recorded values, source ChEMBL document CHEMBL4177761.

Tested on: Nonstructural protein 5A (Hepatitis C virus), Q5L478 [Y93H]
Assay Protocol: Inhibition of NS5A Y93H mutant in HuH7 cell infected HCV genotype 1b Con1 assessed as decrease in viral replication after 4 days by luciferase reporter gene assay relative to wild type protein
Setup Conditions: Hepatitis C virus (isolate Con1)
compounds and their reported fold change (FC)

Worked cases, fold change (FC) given:
COC(=O)N[C@H](C(=O)N1CCC[C@H]1c1nc2ccc([C@H]3CC[C@H](c4ccc5nc([C@@H]6CCCN6C(=O)[C@@H](NC(=O)OC)C(C)C)[nH]c5c4)N3c3ccc(-c4ccccc4)cc3)cc2[nH]1)C(C)C	1
COC(=O)N[C@H](C(=O)N1CCC[C@H]1c1nc2ccc([C@H]3CC[C@H](c4ccc5nc([C@@H]6CCCN6C(=O)[C@@H](NC(=O)OC)C(C)C)[nH]c5c4)N3c3ccc(C4CCCCC4)cc3)cc2[nH]1)C(C)C	1
COC(=O)N[C@H](C(=O)N1CCC[C@H]1C(=O)Nc1ccc([C@@H]2CC[C@@H](c3ccc(NC(=O)[C@@H]4CCCN4C(=O)[C@@H](NC(=O)OC)C(C)C)cc3)N2c2ccc(C(C)(C)C)cc2)cc1)C(C)C	77

// next item, fold change (FC) requested
Per the records, this compound ( "COC(=O)N[C@H](C(=O)N1CCC[C@H]1c1nc2ccc([C@H]3CC[C@H](c4ccc5nc([C@@H]6CCCN6C(=O)[C@@H](NC(=O)OC)C(C)C)[nH]c5c4)N3c3cc(F)c(N4CCC(c5ccc(F)cc5)CC4)c(F)c3)cc2[nH]1)C(C)C" ) has fold change (FC) equal to 2

====

Listed here: items and their measured AUC(0-inf).
Assay Protocol: AUC (0 to infinity) in mouse at 3 mg/kg, po by LC-MS method
Format: ADME, organism-based
Design: dose 3 mg/kg, route oral, time infinity
Setup Conditions: in vivo
Write it as a number; the unit ng·h/mL goes unstated.

COC(=O)N[C@H](C(=O)N1CCC[C@H]1c1nc2cc([C@H]3CC[C@H](c4ccc5[nH]c([C@@H]6CCCN6C(=O)[C@@H](NC(=O)OC)C(C)C)nc5c4)N3c3cc(F)c(N4CCCCC4)c(F)c3)ccc2[nH]1)C(C)C	1790

Looking up "COC(=O)N[C@H](C(=O)N1CCC[C@H]1c1nc2cc(F)c([C@H]3CC[C@H](c4cc5[nH]c([C@@H]6CCCN6C(=O)[C@@H](NC(=O)OC)C(C)C)nc5cc4F)N3c3cc(F)c(N4CCC(c5ccc(F)cc5)CC4)c(F)c3)cc2[nH]1)C(C)C" , I found its AUC(0-inf) recorded as 26100

AUC(0-inf) reported for this compound "COC(=O)N[C@H](C(=O)N1CCC[C@H]1c1nc2cc([C@H]3CC[C@H](c4ccc5[nH]c([C@@H]6CCCN6C(=O)[C@@H](NC(=O)OC)C(C)C)nc5c4)N3c3cc(F)c(N4CCC(c5ccc(F)cc5)CC4)c(F)c3)ccc2[nH]1)C(C)C" : 4590

The compound identified as "COC(=O)N[C@H](C(=O)N1CCC[C@H]1c1nc2ccc([C@H]3CC[C@H](c4ccc5nc([C@@H]6CCCN6C(=O)[C@@H](NC(=O)OC)C(C)C)[nH]c5c4)N3c3ccc(N4CCCCC4)c(F)c3)cc2[nH]1)C(C)C" registered its AUC(0-inf) at 2000

====

Assay Protocol: AUClast in mouse at 3 mg/kg, iv by LC-MS method
Format: ADME, organism-based
Set-up: dose 3 mg/kg, route intravenous, time 0 - last
Setup Conditions: in vivo
Measured Parameter: AUC(0-t) (µg·h/mL)
Answer in µg·h/mL, number only, no unit symbol.

get_value(item= COC(=O)N[C@H](C(=O)N1CCC[C@H]1c1nc2cc([C@H]3CC[C@H](c4cc5nc([C@@H]6CCCN6C(=O)[C@@H](NC(=O)OC)[C@@H](C)OC)[nH]c5cc4F)N3c3cc(F)c(N4CCC(c5ccc(F)cc5)CC4)c(F)c3)c(F)cc2[nH]1)[C@@H](C)OC [PIBRENTASVIR] , readout=AUC(0-t)) returns 252

====

Assay Protocol: Half life in mouse at 3 mg/kg, po by LC-MS method
Assay type: ADME, organism-based
Setup Conditions: in vivo
Measured Parameter: half-life (h)
Please respond with the number in h and leave the unit unwritten.

Documented half-life of "COC(=O)N[C@H](C(=O)N1CCC[C@H]1C(=O)Nc1ccc([C@@H]2CC[C@@H](c3ccc(NC(=O)[C@@H]4CCCN4C(=O)[C@@H](NC(=O)OC)C(C)C)cc3)N2c2ccc(C(C)(C)C)cc2)cc1)C(C)C" : 11.7

====

Assay Protocol: Drug level in rat at 3 mg/kg, po at 24 hrs by LC-MS method
Format: ADME, organism-based
Setup Conditions: in vivo, read-out: Drug uptake
Measured Parameter: concentration at 24 h (nM)
Dear colleague, please return just the value in nM, with no unit written.

Input COC(=O)N[C@H](C(=O)N1CCC[C@H]1c1nc2cc([C@H]3CC[C@H](c4cc5nc([C@@H]6CCCN6C(=O)[C@@H](NC(=O)OC)[C@@H](C)OC)[nH]c5cc4F)N3c3cc(F)c(N4CCC(c5ccc(F)cc5)CC4)c(F)c3)c(F)cc2[nH]1)[C@@H](C)OC [PIBRENTASVIR] . Output concentration at 24 h: 41

====

Each entry below carries its reported fold change (FC).
Tested on: Nonstructural protein 5A (Hepatitis C virus), Q5L478 [Y93H]
Sequence (whole entry): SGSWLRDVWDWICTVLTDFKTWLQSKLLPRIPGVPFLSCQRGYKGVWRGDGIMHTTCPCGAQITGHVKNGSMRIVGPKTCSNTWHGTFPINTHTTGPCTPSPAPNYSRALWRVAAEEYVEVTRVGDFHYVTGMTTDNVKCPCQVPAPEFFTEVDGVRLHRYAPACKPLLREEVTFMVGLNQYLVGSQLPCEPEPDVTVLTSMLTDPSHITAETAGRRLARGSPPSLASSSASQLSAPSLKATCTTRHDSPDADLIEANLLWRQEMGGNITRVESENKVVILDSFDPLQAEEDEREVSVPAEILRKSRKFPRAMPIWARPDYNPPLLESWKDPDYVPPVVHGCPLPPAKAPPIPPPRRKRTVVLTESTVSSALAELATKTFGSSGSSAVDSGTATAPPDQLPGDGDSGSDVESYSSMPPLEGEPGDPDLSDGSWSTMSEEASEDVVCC
Assay Protocol: Inhibition of NS5A Y93H mutant in HuH7 cell infected HCV genotype 1a H77 assessed as decrease in viral replication after 4 days by luciferase reporter gene assay relative to wild type protein
Setup Conditions: Hepatitis C virus (isolate H77)
Enter the number alone.

COC(=O)N[C@H](C(=O)N1CCC[C@H]1c1nc2cc([C@H]3CC[C@H](c4cc5nc([C@@H]6CCCN6C(=O)[C@@H](NC(=O)OC)[C@@H](C)OC)[nH]c5cc4F)N3c3cc(F)c(N4CCC(c5ccc(F)cc5)CC4)c(F)c3)c(F)cc2[nH]1)[C@@H](C)OC	6.7
COC(=O)N[C@H](C(=O)N1CCC[C@H]1c1nc2cc(F)c([C@H]3CC[C@H](c4cc5[nH]c([C@@H]6CCCN6C(=O)[C@@H](NC(=O)OC)C(C)C)nc5cc4F)N3c3cc(F)c(N4CCC(c5ccccc5)CC4)c(F)c3)cc2[nH]1)C(C)C	49
COC(=O)N[C@H](C(=O)N1CCC[C@H]1c1nc2ccc([C@H]3CC[C@H](c4ccc5nc([C@@H]6CCCN6C(=O)[C@@H](NC(=O)OC)C(C)C)[nH]c5c4)N3c3ccc(-c4ccccc4)cc3)cc2[nH]1)C(C)C	329

# ---- query molecule ----
Just so you know, measured fold change (FC) for "COC(=O)N[C@H](C(=O)N1CCC[C@H]1c1nc2ccc([C@H]3CC[C@H](c4ccc5nc([C@@H]6CCCN6C(=O)[C@@H](NC(=O)OC)C(C)C)[nH]c5c4)N3c3ccc(Cl)cc3)cc2[nH]1)C(C)C" came out at 670

====

Tested on: Nonstructural protein 5A (Hepatitis C virus), Q5L478 [Y93N]
Sequence (Q5L478 entry or part of it Y93N): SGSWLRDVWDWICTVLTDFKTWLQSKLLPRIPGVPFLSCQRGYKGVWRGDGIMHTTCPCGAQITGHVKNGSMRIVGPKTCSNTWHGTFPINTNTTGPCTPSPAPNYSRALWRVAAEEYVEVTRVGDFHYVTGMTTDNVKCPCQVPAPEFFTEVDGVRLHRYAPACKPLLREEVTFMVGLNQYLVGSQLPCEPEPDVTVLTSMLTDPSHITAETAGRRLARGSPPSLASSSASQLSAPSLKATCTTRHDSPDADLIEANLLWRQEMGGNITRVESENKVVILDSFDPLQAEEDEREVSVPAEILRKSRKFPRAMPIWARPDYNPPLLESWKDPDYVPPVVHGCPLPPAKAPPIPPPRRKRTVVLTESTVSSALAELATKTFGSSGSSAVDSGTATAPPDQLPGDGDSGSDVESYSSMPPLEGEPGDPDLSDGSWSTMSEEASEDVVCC
Assay Protocol: Inhibition of NS5A Y93N mutant in HuH7 cell infected HCV genotype 1a H77 assessed as decrease in viral replication after 4 days by luciferase reporter gene assay relative to wild type protein
Setup Conditions: Hepatitis C virus (isolate H77)
Class satisfied: fold change (FC) at least 100. Class not satisfied: fold change (FC) below 100.

Use the examples below as a reference point.
COC(=O)N[C@H](C(=O)N1CCC[C@H]1c1nc2ccc([C@H]3CC[C@H](c4ccc5nc([C@@H]6CCCN6C(=O)[C@@H](NC(=O)OC)C(C)C)[nH]c5c4)N3c3cc(F)c(N4CCC(c5ccccc5)CC4)c(F)c3)cc2[nH]1)C(C)C	satisfied
COC(=O)N[C@H](C(=O)N1CCC[C@H]1c1nc2ccc([C@H]3CC[C@H](c4ccc5nc([C@@H]6CCCN6C(=O)[C@@H](NC(=O)OC)C(C)C)[nH]c5c4)N3c3ccc(-c4ccccc4)cc3)cc2[nH]1)C(C)C	satisfied

Kindly determine if fold change (FC) recorded for "COC(=O)N[C@H](C(=O)N1CCC[C@H]1c1nc2ccc([C@H]3CC[C@H](c4ccc5nc([C@@H]6CCCN6C(=O)[C@@H](NC(=O)OC)C(C)C)[nH]c5c4)N3c3ccc(Cl)cc3)cc2[nH]1)C(C)C" is above or exactly 100.
satisfied

Could you please find out whether "COC(=O)N[C@H](C(=O)N1CCC[C@H]1C(=O)Nc1ccc([C@@H]2CC[C@@H](c3ccc(NC(=O)[C@@H]4CCCN4C(=O)[C@@H](NC(=O)OC)C(C)C)cc3)N2c2ccc(C(C)(C)C)cc2)cc1)C(C)C" has fold change (FC) that meets 100 or exceeds it?
satisfied

Reported fold change (FC) at or above 100? "COC(=O)N[C@H](C(=O)N1CCC[C@H]1c1nc2ccc([C@H]3CC[C@H](c4ccc5nc([C@@H]6CCCN6C(=O)[C@@H](NC(=O)OC)C(C)C)[nH]c5c4)N3c3cc(F)c(N4CCC(c5ccc(F)cc5)CC4)c(F)c3)cc2[nH]1)C(C)C"
not satisfied

Evaluate "COC(=O)N[C@H](C(=O)N1CCC[C@H]1c1nc2cc(F)c([C@H]3CC[C@H](c4cc5[nH]c([C@@H]6CCCN6C(=O)[C@@H](NC(=O)OC)C6CCOCC6)nc5cc4F)N3c3cc(F)c(N4CCC(c5ccccc5)CC4)c(F)c3)cc2[nH]1)C1CCOCC1" : fold change (FC) at minimum 100?
not satisfied

Reported fold change (FC) at or above 100? "COC(=O)N[C@H](C(=O)N1CCC[C@H]1c1nc2ccc([C@H]3CC[C@H](c4ccc5nc([C@@H]6CCCN6C(=O)[C@@H](NC(=O)OC)C(C)C)[nH]c5c4)N3c3ccc(C(C)(C)C)cc3)cc2[nH]1)C(C)C"
satisfied

Quick check: does "COC(=O)N[C@H](C(=O)N1CCC[C@H]1c1nc2cc(F)c([C@H]3CC[C@H](c4cc5[nH]c([C@@H]6CCCN6C(=O)[C@@H](NC(=O)OC)C(C)C)nc5cc4F)N3c3cc(F)c(N4CCC(c5ccccc5)CC4)c(F)c3)cc2[nH]1)C(C)C" have fold change (FC) greater than or equal to 100?
not satisfied
